Test Target: CCR2 (Homo sapiens, UniProt P41597)
Construct: Membranes were prepared from THP-1 cells; endogenous in cells; host or cells: THP-1 (human acute monocytic leukaemia cells), membrane preparation
Sequence (P41597 1-360 isoform P41597-2): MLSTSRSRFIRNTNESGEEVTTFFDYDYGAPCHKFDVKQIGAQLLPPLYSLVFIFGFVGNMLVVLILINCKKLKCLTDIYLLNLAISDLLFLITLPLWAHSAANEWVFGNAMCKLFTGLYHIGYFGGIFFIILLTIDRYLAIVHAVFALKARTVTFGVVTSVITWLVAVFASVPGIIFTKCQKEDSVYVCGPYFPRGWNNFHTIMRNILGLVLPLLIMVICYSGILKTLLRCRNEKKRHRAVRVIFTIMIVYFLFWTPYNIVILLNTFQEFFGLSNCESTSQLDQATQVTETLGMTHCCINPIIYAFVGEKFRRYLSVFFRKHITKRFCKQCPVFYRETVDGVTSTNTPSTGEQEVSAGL
Assay Details: CCR2 receptor membrane binding assay (THP-1 membranes, 125I-MCP-1, SPA beads)
Test Settings: THP-1 cell membranes, 125I-MCP-1, 8 h; read-out: hKi [nM] (CCR2)
Measurement Type: log10 Ki (log10 of the value in nM)
Note: values are log10 of Ki expressed in nM.

Examples with their reported log10 Ki follow.
{"columns": ["Compound", "log10 Ki"],
 "data": [
  ["Cc1c(C(=O)N2CCC(N3CC4CN(S(C)(=O)=O)CC4C3)CC2)ncnc1N1CCc2ccc(C(F)(F)F)cc2C1 (stereo not drawn)", 0.85],
  ["Cc1c(Nc2ccc(Cl)c(Cl)c2)ncnc1C(=O)N1CCC(N2CCO[C@H]3COCC[C@H]32)CC1 [Example 24]", 0.30],
  ["Cc1c(NCc2ccc(C(C)(C)C)cc2)nc(C(F)(F)F)nc1C(=O)N1CCC(N2CC3COCC3C2)CC1 (stereo not drawn)", 1.84]
]}

Enquiry: Any idea what log10 Ki was measured for Cc1c(NC[C@H]2CCC[C@@H](c3ccc(OC(F)(F)F)cc3)O2)ncnc1C(=O)N1CCC(N2C[C@H]3C[C@@H](N(C)S(C)(=O)=O)C[C@H]3C2)CC1 ?
Return: -1.00

Enquiry: Do the same for Cc1nc(Nc2ccc(Cl)c(Cl)c2)c(C)c(C(=O)N2CCC(N3CCO[C@H]4COCC[C@H]43)CC2)n1 (single isomer, unassigned) [Example 38a] please
Return: 0.48

Enquiry: Do the same for Cc1ccc([C@@H]2CCC[C@H](CNc3ncnc(C(=O)N4CCC(N5CC6CN(S(C)(=O)=O)CC6C5)CC4)c3C)O2)cc1 (stereo partly drawn) please
Return: 0.48

Enquiry: Do the same for Cc1c(Nc2ccc(Cl)c(Cl)c2)nc(C2CC2)nc1C(=O)N1CCC(N2CCO[C@@H]3COCC[C@@H]32)CC1 (single isomer, unassigned) [Example 35b] please
Return: 0.95

###

Test Target: CCR2 (Homo sapiens)
Construct: Membranes were prepared from THP-1 cells; endogenous in cells; host or cells: THP-1 (human acute monocytic leukaemia cells), membrane preparation
Assay Details: CCR2 receptor membrane binding assay (THP-1 membranes, 125I-MCP-1, SPA beads)
Test Settings: THP-1 cell membranes, 125I-MCP-1, 8 h; read-out: hKi [nM] (CCR2)
Measurement Type: log10(Ki) (log10 of the value in nM)
Note: values are log10 of Ki expressed in nM.

Examples with their reported log10(Ki) follow.
{"columns": ["Molecule", "Quantitative Result"],
 "data": [
  ["Cc1c(Nc2ccc(Cl)c(Cl)c2)ncnc1C(=O)N1CCC(N2CC3COCC3C2)CC1 (stereo not shown) [Example 18]", 1.38],
  ["Cc1c(NC[C@H]2CCC[C@@H](c3ccccc3)C2)ncnc1C(=O)N1CCC(N2CC3COCC3C2)CC1 (stereo partly shown) [Example 44]", 0.85],
  ["Cc1ccc([C@@H]2CCC[C@H](CNc3ncnc(C(=O)N4CCC(N5CC6COCC6C5)CC4)c3C)O2)cc1 (stereo partly shown) [Example 16]", 1.60],
  ["Cc1c(Nc2ccc(Cl)c(Cl)c2)ncnc1C(=O)N1CCC(N2C[C@H]3C[C@@H](N(C)S(C)(=O)=O)C[C@H]3C2)CC1 [Example 10]", -0.22]
]}

Enquiry: Any idea what log10(Ki) was measured for Cc1c(C(=O)N2CCC(N3CC4COCC4C3)CC2)ncnc1N1CCc2ccc(C(F)(F)F)cc2C1 (stereo not shown) [Example 32] ?
Return: 1.90

Enquiry: Do the same for Cc1c(NC[C@H]2CCC[C@@H](c3ccccc3)C2)ncnc1C(=O)N1CCC(N2CC3CN(S(C)(=O)=O)CC3C2)CC1 (stereo partly shown) [Example 43] please
Return: 0.00

Enquiry: Do the same for COc1nc(Nc2ccc(Cl)c(Cl)c2)c(C)c(C(=O)N2CCC(N3CCO[C@H]4COCC[C@H]43)CC2)n1 (single isomer, unassigned) [Example 37a] please
Return: 0.00

###

Test Target: human CCR5 (Homo sapiens)
Construct: expressed in transfected cells; host or cells: CHO cells co-expressing Gα16, grown under puromycin and zeocin selection; membrane preparation
Sequence (P51681 whole entry): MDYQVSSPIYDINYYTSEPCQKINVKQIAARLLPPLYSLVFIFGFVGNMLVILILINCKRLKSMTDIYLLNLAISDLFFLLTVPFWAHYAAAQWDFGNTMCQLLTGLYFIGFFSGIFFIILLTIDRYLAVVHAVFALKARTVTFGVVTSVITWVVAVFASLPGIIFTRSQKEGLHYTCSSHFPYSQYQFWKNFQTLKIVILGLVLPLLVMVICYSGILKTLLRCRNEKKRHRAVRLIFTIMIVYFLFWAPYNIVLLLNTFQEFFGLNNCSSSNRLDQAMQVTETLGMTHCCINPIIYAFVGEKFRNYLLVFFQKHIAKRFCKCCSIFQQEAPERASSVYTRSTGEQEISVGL
Assay Details: CCR5 receptor membrane binding assay (CHO (Gα16) human CCR5 membranes, [125I]RANTES, SPA beads)
Test Settings: 6 h, read-out: hKi [nM] (CCR5)
Measurement Type: Ki (nM)
Kindly answer with a numeric value in nM, unit omitted.

Examples with their reported Ki follow.
{"columns": ["Compound", "Test Target", "Ki (nM)"],
 "data": [
  ["COc1nc(Nc2ccc(Cl)c(Cl)c2)c(C)c(C(=O)N2CCC(N3CCO[C@H]4COCC[C@H]43)CC2)n1 (single isomer, unassigned) [Example 37a]", "human CCR5 (Homo sapiens)", 300],
  ["COc1nc(NCc2ccc(C(C)(C)C)cc2)c(C)c(C(=O)N2CCC(N3CC4COCC4C3)CC2)n1 (stereo not drawn)", "human CCR5 (Homo sapiens)", 4030]
]}

Enquiry: Kindly state the measured Ki obtained for Cc1c(C(=O)N2CCC(N3C[C@H]4C[C@@H](N(C)S(C)(=O)=O)C[C@H]4C3)CC2)ncnc1N1CCc2ccc(C(F)(F)F)cc2C1 with human CCR5 (Homo sapiens).
Return: 420

###

Test Target: human CCR5 (Homo sapiens)
Construct: expressed in transfected cells; host or cells: CHO cells co-expressing Gα16, grown under puromycin and zeocin selection; membrane preparation
Assay Details: CCR5 receptor membrane binding assay (CHO (Gα16) human CCR5 membranes, [125I]RANTES, SPA beads)
Test Settings: 6 h, read-out: hKi [nM] (CCR5)
log10(Ki) overview
Note: values are log10 of Ki expressed in nM.

Examples with their reported log10(Ki) follow.
{"columns": ["Compound", "Measurement Type", "Quantitative Result"],
 "data": [
  ["Cc1c(Nc2ccc(Cl)c(Cl)c2)nc(C2CC2)nc1C(=O)N1CCC(N2CCO[C@@H]3COCC[C@@H]32)CC1 (single isomer, unassigned) [Example 35b]", "log10(Ki)", 3.13],
  ["Cc1c(C(=O)N2CCC(N3CCOC4COCCC43)CC2)ncnc1N1CCc2ccc(C(F)(F)F)cc2C1 (stereo not drawn) [Example 23]", "log10(Ki)", 3.76],
  ["Cc1c(Nc2cccc(C(F)(F)F)c2)nc(C2CC2)nc1C(=O)N1CCC(N2CCO[C@H]3COCC[C@H]32)CC1 [Example 29]", "log10(Ki)", 2.98],
  ["Cc1nc(Nc2ccc(Cl)c(Cl)c2)c(C)c(C(=O)N2CCC(N3CCO[C@H]4COCC[C@H]43)CC2)n1 (single isomer, unassigned) [Example 38a]", "log10(Ki)", 2.41],
  ["Cc1ccc([C@@H]2CCC[C@H](CNc3ncnc(C(=O)N4CCC(N5C[C@H]6C[C@@H](N(C)S(C)(=O)=O)C[C@H]6C5)CC4)c3C)O2)cc1 [Example 6]", "log10(Ki)", 1.58]
]}

Enquiry: Kindly state the measured log10(Ki) obtained for Cc1c(NC[C@H]2CCC[C@@H](c3ccc(OC(F)(F)F)cc3)O2)ncnc1C(=O)N1CCC(N2CCO[C@@H]3COCC[C@H]32)CC1 (single isomer, unassigned) [Example 34] with human CCR5 (Homo sapiens).
Return: 3.06

###

Test Target: CCR2 (Homo sapiens, UniProt P41597)
Construct: Membranes were prepared from THP-1 cells; endogenous in cells; host or cells: THP-1 (human acute monocytic leukaemia cells), membrane preparation
Assay Details: CCR2 receptor membrane binding assay (THP-1 membranes, 125I-MCP-1, SPA beads)
Test Settings: THP-1 cell membranes, 125I-MCP-1, 8 h; read-out: hKi [nM] (CCR2)
Measurement Type: Ki (nM)
Kindly answer with a numeric value in nM, unit omitted.

{"columns": ["Molecule", "Ki / nM"],
 "data": [
  ["Cc1c(C(=O)N2CCC(N3CCO[C@@H]4COCC[C@@H]43)CC2)ncnc1N1COc2ccc(C(F)(F)F)cc2C1 (single isomer, unassigned)", 2],
  ["COc1nc(Nc2cccc(C(F)(F)F)c2)c(C)c(C(=O)N2CCC(N3CCO[C@H]4COCC[C@H]43)CC2)n1 (single isomer, unassigned) [Example 36a]", 7],
  ["Cc1c(NC[C@H]2CCC[C@@H](c3ccc(C(F)(F)F)cc3)O2)ncnc1C(=O)N1CCC(N2CCO[C@@H]3COCC[C@@H]32)CC1", 15]
]}

Enquiry: Any idea what Ki was measured for Cc1nc(Nc2cccc(C(F)(F)F)c2)c(C)c(C(=O)N2CCC(N3CCO[C@H]4COCC[C@H]43)CC2)n1 [Example 30] ?
Return: 9

Enquiry: Do the same for Cc1nc(Nc2cccc(C(F)(F)F)c2)c(C)c(C(=O)N2CCC(N3CCO[C@H]4COCC[C@H]43)CC2)n1 (single isomer, unassigned) [Example 40b] please
Return: 9

Enquiry: Do the same for Cc1c(NC[C@H]2CCC[C@@H](c3ccc(C(F)(F)F)cc3)O2)ncnc1C(=O)N1CCC(N2CCO[C@H]3COCC[C@H]32)CC1 please
Return: 0.5
